Test system: promastigotes of Leishmania tropica kwh 23
Experimental Protocol: Antileishmanial activity (MTT assay)
Type: cell-based
Assay Context: 72 h, MTT
I'd appreciate it if you could supply Antileishmanial LC50 values for the items below.
Numbers only, in µg/mL.

- Molecule: "CCC[CH2][Sn]([CH2]CCC)([CH2]CCC)[O]C(=O)/C=C\\C(=O)NC1CCCCC1 [Ch-442]"
  Assayed System: "promastigotes of Leishmania tropica kwh 23"
  Unit Abbrev: "µg/mL"
  Antileishmanial LC50: 0.088
- Molecule: "CCC[CH2][Sn]([CH2]CCC)([CH2]CCC)[O]C(=O)/C=C\\C(=O)Nc1ccc(C(=O)OCC)cc1 [Ch-431]"
  Assayed System: "promastigotes of Leishmania tropica kwh 23"
  Unit Abbrev: "µg/mL"
  Antileishmanial LC50: 0.078
- Molecule: "CCC[CH2][Sn]([CH2]CCC)([CH2]CCC)[O]C(=O)CCC(=O)Nc1ccc(C(=O)[O][Sn]([CH2]CCC)([CH2]CCC)[CH2]CCC)cc1 [Ch-448]"
  Assayed System: "promastigotes of Leishmania tropica kwh 23"
  Unit Abbrev: "µg/mL"
  Antileishmanial LC50: 0.576
- Molecule: "CCC[CH2][Sn]([CH2]CCC)([CH2]CCC)[O]C(=O)/C=C\\C(=O)Nc1cccc(C)c1C [Ch-459]"
  Assayed System: "promastigotes of Leishmania tropica kwh 23"
  Unit Abbrev: "µg/mL"
  Antileishmanial LC50: 0.323
- Molecule: "CCC[CH2][Sn]([CH2]CCC)([CH2]CCC)[O]C(=O)COc1ccc(OCC(=O)[O][Sn]([CH2]CCC)([CH2]CCC)[CH2]CCC)cc1 [Ch-409]"
  Assayed System: "promastigotes of Leishmania tropica kwh 23"
  Unit Abbrev: "µg/mL"
  Antileishmanial LC50: 0.954
- Molecule: "CCC[CH2][Sn]([CH2]CCC)([CH2]CCC)[O]C(=O)c1ccccc1C(=O)Nc1cccc2ccccc12 [Ch-450]"
  Assayed System: "promastigotes of Leishmania tropica kwh 23"
  Unit Abbrev: "µg/mL"
  Antileishmanial LC50: 0.361

Field: next molecule
Asked: State its Antileishmanial LC50: CCC[CH2][Sn]([CH2]CCC)([CH2]CCC)[O]C(=O)/C=C\C(=O)Nc1ccccc1 [Ch-458]
Given back: 0.256

* * *

I'd appreciate it if you could supply ZOI CZ (clear zone) values for the items below.
Tested on: Streptomyces 85E
Experimental Protocol: Protein kinase inhibition assay (Streptomyces disc assay)
Type: cell-based
Assay Context: 50 μg/disc; (-) shows no ZOI

Here are 3 compounds together with their reported answers.
- Test Smiles: "CCC[CH2][Sn]([CH2]CCC)([CH2]CCC)[O]C(=O)/C=C\\C(=O)Nc1ccccc1"
  Assayed System: "Streptomyces 85E"
  Assay Endpoint: "ZOI CZ (clear zone)"
  Value Observed: "30 ± 1.2 mm"
- Test Smiles: "CCC[CH2][Sn]([CH2]CCC)([CH2]CCC)[O]C(=O)/C=C\\C(=O)Nc1ccc(C(=O)OCC)cc1"
  Assayed System: "Streptomyces 85E"
  Assay Endpoint: "ZOI CZ (clear zone)"
  Value Observed: "31 ± 0.78 mm"
- Test Smiles: "CCC[CH2][Sn]([CH2]CCC)([CH2]CCC)[O]C(=O)c1ccccc1C(=O)Nc1cccc2ccccc12"
  Assayed System: "Streptomyces 85E"
  Assay Endpoint: "ZOI CZ (clear zone)"
  Value Observed: "32 ± 1.13 mm"

Field: next compound
Asked: State its ZOI CZ (clear zone): `CCC[CH2][Sn]([CH2]CCC)([CH2]CCC)[O]C(=O)/C=C\C(=O)Nc1cccc(C)c1C`
Given back: 35 ± 0.99 mm

* * *

I'd appreciate it if you could supply ZOI CZ (clear zone) values for the items below.
System: Streptomyces 85E
Experimental Protocol: Protein kinase inhibition assay (Streptomyces disc assay)
Type: cell-based
Assay Context: 50 μg/disc; (-) shows no ZOI
Answers are plain numbers, in mm.

Here are 2 molecules together with their reported answers.
- Test Smiles: "CCC[CH2][Sn]([CH2]CCC)([CH2]CCC)[O]C(=O)/C=C\\C(=O)NC1CCCCC1"
  ZOI CZ (clear zone) (mm): 40
- Test Smiles: "CCC[CH2][Sn]([CH2]CCC)([CH2]CCC)[O]C(=O)COc1ccc(OCC(=O)[O][Sn]([CH2]CCC)([CH2]CCC)[CH2]CCC)cc1"
  ZOI CZ (clear zone) (mm): 30

Asked: State its ZOI CZ (clear zone): `CCC[CH2][Sn]([CH2]CCC)([CH2]CCC)[O]C(=O)CCC(=O)Nc1ccc(C(=O)[O][Sn]([CH2]CCC)([CH2]CCC)[CH2]CCC)cc1`
Given back: 31

* * *

Tested on: promastigotes of Leishmania tropica kwh 23
Experimental Protocol: Antileishmanial activity (MTT assay)
Assay type: cell-based
Assay Context: 20 μg/mL, 72 h
Assay Endpoint: Antileishmanial % growth inhibition (mortality, lethality) (%)
Answers are plain numbers, in %.

Here are 2 compounds together with their reported answers.
- Test Smiles: "CCC[CH2][Sn]([CH2]CCC)([CH2]CCC)[O]C(=O)CCC(=O)Nc1ccc(C(=O)[O][Sn]([CH2]CCC)([CH2]CCC)[CH2]CCC)cc1"
  Unit Abbrev: "%"
  Value Observed: 96.5
- Test Smiles: "CCC[CH2][Sn]([CH2]CCC)([CH2]CCC)[O]C(=O)/C=C\\C(=O)NC1CCCCC1"
  Unit Abbrev: "%"
  Value Observed: 95.8

Field: next compound
Asked: State its Antileishmanial % growth inhibition (mortality, lethality): `CCC[CH2][Sn]([CH2]CCC)([CH2]CCC)[O]C(=O)/C=C\C(=O)Nc1cccc(C)c1C`
Given back: 97.9

* * *

I'd appreciate it if you could supply Antileishmanial % growth inhibition (mortality, lethality) values for the items below.
System: promastigotes of Leishmania tropica kwh 23
Experimental Protocol: Antileishmanial activity (MTT assay)
Format: cell-based
Assay Context: 20 μg/mL, 72 h
Give bare numbers, in %.

Here are 3 compounds together with their reported answers.
- Test Smiles: "CCC[CH2][Sn]([CH2]CCC)([CH2]CCC)[O]C(=O)/C=C\\C(=O)Nc1ccc(C(=O)OCC)cc1"
  Unit Abbrev: "%"
  Value Observed: 97.5
- Test Smiles: "CCC[CH2][Sn]([CH2]CCC)([CH2]CCC)[O]C(=O)c1ccccc1C(=O)Nc1cccc2ccccc12"
  Unit Abbrev: "%"
  Value Observed: 97.4
- Test Smiles: "CCC[CH2][Sn]([CH2]CCC)([CH2]CCC)[O]C(=O)COc1ccc(OCC(=O)[O][Sn]([CH2]CCC)([CH2]CCC)[CH2]CCC)cc1"
  Unit Abbrev: "%"
  Value Observed: 97.5

Asked: Give Antileishmanial % growth inhibition (mortality, lethality); test system promastigotes of Leishmania tropica kwh 23; compound `CCC[CH2][Sn]([CH2]CCC)([CH2]CCC)[O]C(=O)/C=C\C(=O)Nc1ccccc1`
Given back: 97.8

* * *

Test system: Streptomyces 85E
Experimental Protocol: Protein kinase inhibition assay (Streptomyces disc assay)
Assay type: cell-based
Assay Context: 6.25 μg/disc; BZ indicative of PK inhibition
Assay Endpoint: ZOI BZ (bald zone) (mm)
One number for each entry, in mm.

Here are 2 compounds together with their reported answers.
- Compound: "CCC[CH2][Sn]([CH2]CCC)([CH2]CCC)[O]C(=O)COc1ccc(OCC(=O)[O][Sn]([CH2]CCC)([CH2]CCC)[CH2]CCC)cc1 [Ch-409]"
  ZOI BZ (bald zone) (mm): 30
- Compound: "CCC[CH2][Sn]([CH2]CCC)([CH2]CCC)[O]C(=O)/C=C\\C(=O)Nc1ccc(C(=O)OCC)cc1 [Ch-431]"
  ZOI BZ (bald zone) (mm): 26

For every record below, what is its ZOI BZ (bald zone)?
1. CCC[CH2][Sn]([CH2]CCC)([CH2]CCC)[O]C(=O)/C=C\C(=O)Nc1cccc(C)c1C [Ch-459]
2. CCC[CH2][Sn]([CH2]CCC)([CH2]CCC)[O]C(=O)c1ccccc1C(=O)Nc1cccc2ccccc12 [Ch-450]
3. CCC[CH2][Sn]([CH2]CCC)([CH2]CCC)[O]C(=O)CCC(=O)Nc1ccc(C(=O)[O][Sn]([CH2]CCC)([CH2]CCC)[CH2]CCC)cc1 [Ch-448]
4. CCC[CH2][Sn]([CH2]CCC)([CH2]CCC)[O]C(=O)/C=C\C(=O)NC1CCCCC1 [Ch-442]
5. CCC[CH2][Sn]([CH2]CCC)([CH2]CCC)[O]C(=O)/C=C\C(=O)Nc1ccccc1 [Ch-458]

Given back:
30
28
25
29
31

* * *

Test system: Leishmania tropica kwh 23 promastigotes
Experimental Protocol: Photosensitizing effect against leishmania
Format: cell-based
Assay Context: 0.092 μg/mL; 15 min
Assay Endpoint: Photosensitizing effect % growth inhibition, Sunlight with IR filter

- Test Smiles: "CCC[CH2][Sn]([CH2]CCC)([CH2]CCC)[O]C(=O)/C=C\\C(=O)Nc1ccc(C(=O)OCC)cc1"
  Value Observed: "47.5 ± 0.99%"
- Test Smiles: "CCC[CH2][Sn]([CH2]CCC)([CH2]CCC)[O]C(=O)/C=C\\C(=O)Nc1cccc(C)c1C"
  Value Observed: "30.14 ± 1.47%"
- Test Smiles: "CCC[CH2][Sn]([CH2]CCC)([CH2]CCC)[O]C(=O)/C=C\\C(=O)Nc1ccccc1"
  Value Observed: "30.25 ± 0.17%"
- Test Smiles: "CCC[CH2][Sn]([CH2]CCC)([CH2]CCC)[O]C(=O)c1ccccc1C(=O)Nc1cccc2ccccc12"
  Value Observed: "20.7 ± 0.43%"

Field: next compound
Asked: Give Photosensitizing effect % growth inhibition, Sunlight with IR filter; test system Leishmania tropica kwh 23 promastigotes; compound `CCC[CH2][Sn]([CH2]CCC)([CH2]CCC)[O]C(=O)/C=C\C(=O)NC1CCCCC1`
Given back: 49.25 ± 0.63%
